Tested on: Radical scavenging activity
Experiment: Antioxidant activity assessed as DPPH free radical scavenging activity at 1 uM after 4 mins by spectrophotometry
Type: functional
The source made the active and inactive calls. No cut-off for these calls is given here.
ASSAY_ENDPOINT: Activity

[
  {
    "GIVEN_SMILES": "COc1cc(OC)c(C(=O)c2cccc(Cl)c2)c(O)c1CN1CCOCC1",
    "ASSAY_ENDPOINT": "Activity",
    "DATA_VALUE": "6.44%"
  },
  {
    "GIVEN_SMILES": "COc1cc(O)c(C(=O)c2ccccc2Br)c(OC)c1",
    "ASSAY_ENDPOINT": "Activity",
    "DATA_VALUE": "inactive"
  },
  {
    "GIVEN_SMILES": "COc1cc(OC)c(C(=O)c2ccccc2F)c(O)c1CN1CCOCC1",
    "ASSAY_ENDPOINT": "Activity",
    "DATA_VALUE": "4.2%"
  },
  {
    "GIVEN_SMILES": "COc1cc(O)c(C(=O)c2cccc(F)c2)c(OC)c1",
    "ASSAY_ENDPOINT": "Activity",
    "DATA_VALUE": "inactive"
  },
  {
    "GIVEN_SMILES": "COc1cc(O)c(C(=O)c2cccc(Cl)c2)c(OC)c1",
    "ASSAY_ENDPOINT": "Activity",
    "DATA_VALUE": "3.9%"
  },
  {
    "GIVEN_SMILES": "COc1cc(OC)c(C(=O)c2ccccc2F)c(O)c1CN1CCCCC1",
    "ASSAY_ENDPOINT": "Activity",
    "DATA_VALUE": "16.9%"
  }
]

Form field Activity, entry "COc1cc(OC)c(C(=O)c2cccc(F)c2)c(O)c1CN1CCN(C)CC1" : 15.8%

// Activity lookup, molecule = "COc1cc(OC)c(C(=O)c2cccc(Cl)c2)c(O)c1CN1CCCCC1" , result: 11.4%

The molecule "COc1cc(OC)c(C(=O)c2ccccc2Br)c(O)c1CN1CCCC1" showed Activity equal to inactive

Note to self: Activity recorded for "COc1cc(OC)c(C(=O)c2ccccc2F)c(O)c1CN1CCN(C)CC1" was 3.95%

For this molecule ( "COc1cc(OC)c(C(=O)c2ccccc2Br)c(O)c1CN1CCOCC1" ), measured Activity is 1.2%
